All figures here come from patent US9751885B2.

Molecular target: MAO-A enzyme (Homo sapiens (Human))
Sequence (P21397 whole entry): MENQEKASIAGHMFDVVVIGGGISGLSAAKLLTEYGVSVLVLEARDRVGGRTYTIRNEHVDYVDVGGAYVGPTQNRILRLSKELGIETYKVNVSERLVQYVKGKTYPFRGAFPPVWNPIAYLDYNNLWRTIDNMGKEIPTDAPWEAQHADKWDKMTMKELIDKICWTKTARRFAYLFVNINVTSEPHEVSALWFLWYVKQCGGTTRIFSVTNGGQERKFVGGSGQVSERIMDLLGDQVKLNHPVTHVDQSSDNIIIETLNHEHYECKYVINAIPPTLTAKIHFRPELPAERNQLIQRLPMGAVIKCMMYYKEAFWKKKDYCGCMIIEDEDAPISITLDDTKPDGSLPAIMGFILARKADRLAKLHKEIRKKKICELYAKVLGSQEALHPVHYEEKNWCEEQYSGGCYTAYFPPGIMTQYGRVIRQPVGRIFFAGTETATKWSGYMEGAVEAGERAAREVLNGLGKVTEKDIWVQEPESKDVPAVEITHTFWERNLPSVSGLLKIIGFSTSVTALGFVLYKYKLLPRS
Counter-ions that a name gives are not always drawn.
readout_kind: IC50

[[record]]
molecule = "O=C(Nc1ccc2[nH]ncc2c1)c1cccc([C@@H]2C[C@H]2NCC2CC2)c1 (relative stereo) [Example 146, trifluoroacetate]"
val = "> 10 µM"

[[record]]
molecule = "O=C(Nc1ccc(Oc2ccc(F)cc2)nc1)c1cccc([C@@H]2C[C@H]2NCC2CC2)c1 (relative stereo) [Example 137, bis(trifluoroacetate)]"
val = "> 10 µM"

[[record]]
molecule = "CN1CCN(c2ccc(NC(=O)c3ccc([C@@H]4C[C@H]4NCC4CC4)cc3)cc2)CC1 (relative stereo) [Example 23, tris(trifluoroacetate)]"
val = "> 10 µM"

